Target: isolated recombinant JAK2 kinase domain (Homo sapiens (Human))
Settings: read-out: JAK2 Ki; isolated recombinant JAK2 kinase domain, 25 μM ATP
measuredAttribute: Ki (nM)
State just the number; it will be interpreted in nM.

compound	Ki (nM)
CN1CCC(N(C)C(=O)c2ccc(Nc3nc4c(N5CCC6(CC5)CNC(=O)C6)cccn4n3)cc2)CC1	17.2
CN1CCC(N(C)C(=O)c2ccc(Nc3nc4c(N5CCC(CO)(CNCC(F)(F)F)CC5)cccn4n3)cc2)CC1	2.54
CN1CCC(N(C)C(=O)c2ccc(Nc3nc4c(N5CCN6C(=O)COC[C@H]6C5)cccn4n3)cc2)CC1	38.7
COc1ccc(C2(O)CCN(c3cccn4nc(Nc5ccc(C(=O)N(C)C6CCN(C)CC6)cc5)nc34)CC2)cc1	4.58
CN1CCC(N(C)C(=O)c2ccc(Nc3nc4c(N5CCC6(CNC(=O)O6)C5)cccn4n3)cc2)CC1 (centres unmarked)	19.1
CN1CCC(N(C)C(=O)c2ccc(Nc3nc4c(N5CCC(O)(c6cccc(C#N)c6)CC5)cccn4n3)cc2)CC1	32.1
CN(C)CCN1CCN(C(=O)c2ccc(Nc3nc4c(N5CCC(O)(c6ccc(Cl)cc6)CC5)cccn4n3)cc2)CC1	1.95

Bench note, isolated recombinant JAK2 kinase domain (Homo sapiens (Human)): entry `CN1CCC(N(C)C(=O)c2ccc(Nc3nc4c(N5CCC(OCC#N)CC5)cccn4n3)cc2)CC1` , its Ki = 2.5

###

Test system: JAK1-dependent STAT6 phosphorylation downstream of IL-13 stimulation in TF-1 human erythroleukemia cells
Test: cells
Conditions: TF-1, read-out: IL-13-pSTAT6 IC50
measuredAttribute: IC50 (µM)
Respond with the bare value in µM.

IC50 measured on CN1CCC(N(C)C(=O)c2ccc(Nc3nc4c(C5=CCN(C(=O)OC6COC6)CC5)cccn4n3)cc2)CC1 [Example 2-283] = 0.054

// IC50 value for O=C(CCC(F)(F)F)N1CC=C(c2cccn3nc(Nc4ccc(C(=O)N5CCC6(CNC6)C5)cc4)nc23)CC1 [Example 2-379] : 0.282

Entry O=C(CCC(F)(F)F)N1CC=C(c2cccn3nc(Nc4ccc(C(=O)N5CCCCC56CCCNC6)cc4)nc23)CC1 (stereo not shown) [Example 2-34] ; IC50 = 0.352

// O=C(CCC(F)(F)F)N1CC=C(c2cccn3nc(Nc4ccc(C(=O)N5CCN(CC6CCCO6)CC5)cc4)nc23)CC1 (stereo not shown) [Example 2-340] : IC50 value = 0.0039

Per the record, CN1CCC(NC(=O)c2ccc(Nc3nc4c(C5=CCN(C(=O)CCC(F)(F)F)CC5)cccn4n3)cc2)C1 (stereo not shown) [Example 2-459] has IC50 of 0.0205

// sample CC1CN(CCNC(=O)c2ccc(Nc3nc4c(C5=CCN(C(=O)CCC(F)(F)F)CC5)cccn4n3)cc2)CC(C)O1 (stereo not shown) [Example 2-268] , its IC50 was 0.003

The compound identified as O=C(c1ccc(Nc2nc3c(N4CCC(O)(c5ccc(Cl)cc5)CC4)cccn3n2)cc1)N1CCCN(c2ccncc2)CC1 [Example 1-114] registered its IC50 at 0.0297

###

Molecular target: isolated recombinant JAK2 kinase domain (Homo sapiens (Human), UniProt O60674)
Sequence (O60674 849-1124): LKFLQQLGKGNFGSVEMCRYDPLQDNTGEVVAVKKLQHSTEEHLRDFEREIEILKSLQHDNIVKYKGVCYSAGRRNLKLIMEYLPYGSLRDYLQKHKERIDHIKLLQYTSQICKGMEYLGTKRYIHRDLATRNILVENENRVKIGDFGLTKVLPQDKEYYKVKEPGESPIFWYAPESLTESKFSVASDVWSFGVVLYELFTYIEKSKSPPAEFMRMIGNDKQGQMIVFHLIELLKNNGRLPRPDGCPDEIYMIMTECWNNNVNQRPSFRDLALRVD
Settings: read-out: JAK2 Ki; isolated recombinant JAK2 kinase domain, 25 μM ATP
# class assignment by measured Ki: group A: < 0.7 nM; group B: ≥ 0.7 nM and < 4 nM; group C: ≥ 4 nM

compound	assignedClass
Cc1ccc(C2(O)CCN(c3cccn4nc(Nc5ccc(C(=O)N(C)C6CCN(C)CC6)cc5)nc34)CC2)cc1	group B

# bin label for `CO/N=C/C1(c2ccc(Cl)cc2)CCN(c2cccn3nc(Nc4ccc(C(=O)N(C)C5CCN(C)CC5)cc4)nc23)CC1` group B

For `CN1CCC(N(C)C(=O)c2ccc(Nc3nc4c(N5CCC(CN)(c6ccc(Cl)cc6)CC5)cccn4n3)cc2)CC1` , which Ki bin applies? group A

# classify by Ki band: CC(O)C1(c2ccc(Cl)cc2)CCN(c2cccn3nc(Nc4ccc(C(=O)N(C)C5CCN(C)CC5)cc4)nc23)CC1 (stereo not drawn) group A

Where would `O=C(c1ccc(Nc2nc3c(N4CCC(O)(c5ccc(Cl)cc5)CC4)cccn3n2)cc1)N1CCN(c2ccccn2)CC1` land among the classes by reported Ki? group B

Could you tell me which band `CN1CCC(N(C)C(=O)c2ccc(Nc3nc4c(N5CCC(F)(c6ccccc6)CC5)cccn4n3)cc2)CC1` belongs to? group C

In plain terms, what class is `CCc1ccc(C2(O)CCN(c3cccn4nc(Nc5ccc(C(=O)N(C)C6CCN(C)CC6)cc5)nc34)CC2)cc1` ? group C

// bin(item) where item = `COC1CCN(c2cccn3nc(Nc4ccc(C(=O)N(C)C5CCN(C)CC5)cc4)nc23)CC1` group C
